Taken from patent US20260062412A1.

- study-target: UniProtKB Q99640
- test-name: MYT1 kinase activity inhibition test (ELISA, phosphorylation of Y15 of CDK1)
- Format: biochemical
- test-settings: phosphorylation level of Y15 of CDK1 protein caused by MYT1 protein, 60 minutes
quantity-kind: pIC50
Quick note: pIC50 values are minus log10 of concentrations in mol/L.

Reported pIC50, molecule Nc1c(-c2ccc(C(F)(F)F)c3[nH]ncc23)c2cc(Cl)ccc2[nH]c1=O : ____
8.30

Next record, please: Nc1c(-c2ccc(F)c3[nH]ncc23)c2cc(C3CCN(C4CCC4)CC3)c3ncccc3c2[nH]c1=O
8.12

Next record, please: Nc1c(-c2ccc(Cl)c3[nH]ncc23)c2cc(Cl)c(OC(F)F)cc2[nH]c1=O
9.15

Next record, please: Nc1c(-c2cccc3[nH]ncc23)c2cc(C3CC3)c3ccncc3c2[nH]c1=O
9.08

###

- study-target: MYT1 protein (Homo sapiens (Human), UniProt Q99640)
- Sequence (Q99640 whole entry): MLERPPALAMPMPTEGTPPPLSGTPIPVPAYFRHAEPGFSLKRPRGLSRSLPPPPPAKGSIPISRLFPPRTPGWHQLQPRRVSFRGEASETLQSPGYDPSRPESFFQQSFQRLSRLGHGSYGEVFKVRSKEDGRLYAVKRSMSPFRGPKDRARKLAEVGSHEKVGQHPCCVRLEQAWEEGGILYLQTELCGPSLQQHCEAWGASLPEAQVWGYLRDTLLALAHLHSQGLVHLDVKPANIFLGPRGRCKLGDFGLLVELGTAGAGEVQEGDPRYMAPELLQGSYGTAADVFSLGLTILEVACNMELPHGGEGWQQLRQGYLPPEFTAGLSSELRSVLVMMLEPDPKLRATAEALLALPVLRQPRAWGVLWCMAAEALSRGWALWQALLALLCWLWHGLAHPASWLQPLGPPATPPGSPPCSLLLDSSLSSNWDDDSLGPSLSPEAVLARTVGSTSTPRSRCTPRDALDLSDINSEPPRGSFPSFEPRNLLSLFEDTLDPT
- test-name: Test for binding to ATP binding site of MYT1 (Kinase Tracer 178 / Eu-Anti-GST antibody TR-FRET)
- test-settings: ATP binding site of MYT1, 30 minutes at room temperature
- Procedure: The binding capacity of each compound to the ATP binding site of MYT1 Kinase protein was evaluated. […] Thereafter, fluorescence wavelengths of 665 nm and 615 nm generated by irradiation with excitation light of 340 nm were detected using Envision (manufactured by PerkinElmer). The proportion of Tracer bound to MYT1 protein was calculated for every condition by dividing the intensity at the fluorescence wavelength of 665 nm by the intensity at the fluorescence wavelength of 615 nm.
Provide the recorded pIC50 for the entries that follow.
Quick note: pIC50 values are minus log10 of concentrations in mol/L.

Reported pIC50, molecule Nc1c(-c2ccc(Cl)c3[nH]ncc23)c2cc(Cl)cc(Br)c2[nH]c1=O : ____
7.57

Next record, please: Nc1c(-c2ccc(F)c3[nH]ncc23)c2ccc3ncccc3c2[nH]c1=O
8.62

Next record, please: N#Cc1cc2c(-c3ccc(C#N)c4[nH]ncc34)c(N)c(=O)[nH]c2c2ccccc12
6.60

Next record, please: CC(C)(C)c1cc2c(-c3ccc(F)c4[nH]ncc34)c(N)c(=O)[nH]c2c2cccnc12
6.00

Next record, please: Nc1c(-c2ccc(F)c3[nH]ncc23)c2cc(C3CC4(C3)CC(F)(F)C4)c3ncccc3c2[nH]c1=O
8.54

Next record, please: Nc1c(-c2ccc(Cl)c3[nH]ncc23)c2cc(OCCC(F)F)c(F)cc2[nH]c1=O
8.03

Next record, please: Nc1c(-c2cccc3[nH]ncc23)c2cc(Cl)ccc2[nH]c1=O
7.32

Next record, please: N#C[C@H]1C[C@H](c2cc3c(-c4ccc(F)c5[nH]ncc45)c(N)c(=O)[nH]c3c3cccnc32)C1
9.08

Next record, please: Nc1c(-c2ccc(Cl)c3[nH]ncc23)c2cc(C3CCNCC3)ccc2[nH]c1=O [Compound A33, 2,2,2-trifluoroacetate]
7.89

Next record, please: CO[C@H]1C[C@H](Oc2cc3c(-c4ccc(F)c5[nH]ncc45)c(N)c(=O)[nH]c3c3cccnc23)C1
8.24

Next record, please: Nc1c(-c2ccc(Cl)c3[nH]ncc23)c2cc(Cl)c(Br)cc2[nH]c1=O
7.40

Next record, please: Nc1c(-c2cc(F)c(F)c3[nH]ncc23)c2cc(Br)c3ncc(F)cc3c2[nH]c1=O
7.66

Next record, please: Nc1c(-c2ccncc2)c2cc(Cl)ccc2[nH]c1=O
5.30

Next record, please: Nc1nccc(-c2c(N)c(=O)[nH]c3ccc(Cl)cc23)n1
5.60

Next record, please: Nc1c(-c2cc(F)c(F)c3[nH]ncc23)c2cc(N3CCOCC3)c3ncccc3c2[nH]c1=O
8.68

Next record, please: Cc1cc2c(-c3cc(F)c(Cl)c4[nH]ncc34)c(N)c(=O)[nH]c2c2cccnc12
8.44
